Attribute: IC50
- Experimental system: recombinant JAK1 (amino acids 866-1154) (Homo sapiens (Human), UniProt P23458)
- Sequence (P23458 866-1154): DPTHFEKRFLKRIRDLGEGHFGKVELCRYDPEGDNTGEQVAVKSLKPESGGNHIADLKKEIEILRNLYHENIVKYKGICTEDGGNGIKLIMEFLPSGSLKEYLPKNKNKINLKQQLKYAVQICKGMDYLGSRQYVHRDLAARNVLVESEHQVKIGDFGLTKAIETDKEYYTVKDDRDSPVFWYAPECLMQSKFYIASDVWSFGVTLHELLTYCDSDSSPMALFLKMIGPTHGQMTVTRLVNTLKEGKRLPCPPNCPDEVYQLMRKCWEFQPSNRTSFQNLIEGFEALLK
- Protocol description: Enzyme inhibition studies, JAK1 (5 mM ATP, Caliper)
Value expressed in nM; do not type the unit.

[
  {
    "Entry smiles": "COC[C@@H](C(=O)Nc1cccc2c(-c3nc(Nc4cccc(S(C)(=O)=O)c4F)ncc3F)c[nH]c12)N1C[C@H](C)N(C)[C@@H](C)C1",
    "Experimental system": "recombinant JAK1 (amino acids 866-1154) (Homo sapiens (Human), UniProt P23458)",
    "IC50 (nM)": 3280
  },
  {
    "Entry smiles": "CC[C@H](C(=O)Nc1cccc2c(-c3nc(Nc4cccc(S(C)(=O)=O)c4F)ncc3F)c[nH]c12)N1C[C@@H](C)N[C@H](C)C1",
    "Experimental system": "recombinant JAK1 (amino acids 866-1154) (Homo sapiens (Human), UniProt P23458)",
    "IC50 (nM)": 6.4
  },
  {
    "Entry smiles": "Cc1cnc(Nc2cccc(S(C)(=O)=O)c2F)nc1-c1c[nH]c2c(NC(=O)[C@@H](C)N3C[C@H](C)N(C)[C@@H](C)C3)cccc12",
    "Experimental system": "recombinant JAK1 (amino acids 866-1154) (Homo sapiens (Human), UniProt P23458)",
    "IC50 (nM)": 6.6
  },
  {
    "Entry smiles": "COC[C@@H](C(=O)Nc1cccc2c(-c3nc(Nc4cccc(S(C)(=O)=O)c4F)ncc3F)c[nH]c12)N1C[C@@H](C)N[C@H](C)C1",
    "Experimental system": "recombinant JAK1 (amino acids 866-1154) (Homo sapiens (Human), UniProt P23458)",
    "IC50 (nM)": 482
  }
]

Prompt: Name the recorded IC50 for `C[C@H](C(=O)Nc1cccc2c(-c3nc(Nc4cccc(S(C)(=O)=O)c4F)ncc3Cl)c[nH]c12)N1CCN(C)CC1` .
Completion: 5.1

###

- Experimental system: recombinant JAK2 (amino acids 831-1132) (Homo sapiens (Human))
- Protocol description: Enzyme inhibition studies, JAK2 (5 mM ATP, Caliper)
Quantity name: IC50

[
  {
    "Entry smiles": "COC[C@@H](C(=O)Nc1cccc2c(-c3nc(Nc4cccc(S(C)(=O)=O)c4F)ncc3C)c[nH]c12)N1CCCN(C)CC1",
    "Experimental system": "recombinant JAK2 (amino acids 831-1132) (Homo sapiens (Human))",
    "IC50": "> 30 µM"
  }
]

Prompt: What value of IC50 has been reported for the following compound? `CC[C@@H](C(=O)Nc1cccc2c(-c3nc(Nc4cccc(S(C)(=O)=O)c4F)ncc3C)c[nH]c12)N1C[C@H](C)N(C)[C@@H](C)C1`
Completion: > 30 µM

Prompt: # get_value(readout='IC50', item= `COC[C@@H](C(=O)Nc1cccc2c(-c3nc(Nc4cccc(S(C)(=O)=O)c4F)ncc3F)c[nH]c12)N1CCN(C)C[C@H]1C` )
Completion: > 30 µM

###

- Experimental system: recombinant JAK1 (amino acids 866-1154) (Homo sapiens (Human))
- Protocol description: Enzyme inhibition studies, JAK1 (5 mM ATP, Caliper)
- Experimental: JAK enzyme was expressed as N-terminal GST fusion in insect cells and purified by glutathione-affinity and size-exclusion chromatographies. Enzymes were assayed at their approximated high end of physiological ATP concentration of 5 mM, in the presence of inhibitor dosed at 30, 3, 0.3, 0.03, 0.003 and 0 μM final test concentrations. Phosphorylated and unphosphotylated peptides were separated and quantified by a Caliper LC3000 system (Caliper Life Sciences, MA) for calculating percent inhibition.
Quantity name: IC50

Look over these answered cases.
[
  {
    "Compound": "CC[C@H](C(=O)Nc1cccc2c(-c3nc(Nc4cccc(S(C)(=O)=O)c4F)ncc3F)c[nH]c12)N1CCN(C)CC1C (stereo in doubt)",
    "IC50": "< 3 nM"
  },
  {
    "Compound": "Cc1cnc(Nc2cccc(S(=O)(=O)C3CC3)c2F)nc1-c1c[nH]c2c(NC(=O)[C@@H](C)N3CCN(C)CC3)cccc12",
    "IC50": "< 3 nM"
  }
]

# evaluate next
Prompt: Give its IC50 value. Item: `COC[C@H](C(=O)Nc1cccc2c(-c3nc(Nc4cccc(S(C)(=O)=O)c4F)ncc3F)c[nH]c12)N1CCN(C)CC1`
Completion: < 3 nM

###

- Experimental system: recombinant JAK2 (amino acids 831-1132) (Homo sapiens (Human), UniProt O60674)
- Sequence (O60674 831-1132): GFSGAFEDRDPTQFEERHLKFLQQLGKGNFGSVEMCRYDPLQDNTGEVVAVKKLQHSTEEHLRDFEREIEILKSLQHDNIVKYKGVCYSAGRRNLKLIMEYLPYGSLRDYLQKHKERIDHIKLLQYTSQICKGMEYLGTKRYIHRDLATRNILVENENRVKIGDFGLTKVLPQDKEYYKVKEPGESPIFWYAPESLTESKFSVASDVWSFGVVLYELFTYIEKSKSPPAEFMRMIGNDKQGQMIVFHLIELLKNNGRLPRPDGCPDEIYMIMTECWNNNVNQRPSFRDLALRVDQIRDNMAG
- Protocol description: Enzyme inhibition studies, JAK2 (5 mM ATP, Caliper)
Quantity name: IC50

Example cases with answers are listed next.
[
  {
    "Compound": "CC[C@@H](C(=O)Nc1cccc2c(-c3nc(Nc4cccc(S(C)(=O)=O)c4F)ncc3C)c[nH]c12)N1CCN(C)CC1C (stereo in doubt) [Example 61]",
    "Experimental system": "recombinant JAK2 (amino acids 831-1132) (Homo sapiens (Human), UniProt O60674)",
    "Value": "> 30 µM"
  },
  {
    "Compound": "COC[C@@H](C(=O)Nc1cccc2c(-c3nc(Nc4cccc(S(C)(=O)=O)c4F)ncc3F)c[nH]c12)N1C[C@H](C)N(C)[C@@H](C)C1",
    "Experimental system": "recombinant JAK2 (amino acids 831-1132) (Homo sapiens (Human), UniProt O60674)",
    "Value": "> 30 µM"
  },
  {
    "Compound": "CC[C@@H](C(=O)Nc1cccc2c(-c3nc(Nc4cccc(S(C)(=O)=O)c4F)ncc3F)c[nH]c12)N1CCCN(C)CC1",
    "Experimental system": "recombinant JAK2 (amino acids 831-1132) (Homo sapiens (Human), UniProt O60674)",
    "Value": "> 30 µM"
  }
]

Would you kindly look at the next entry?
Prompt: GET /values?readout=IC50&item= `C[C@H](C(=O)Nc1cccc2c(-c3nc(Nc4cccc(S(C)(=O)=O)c4F)ncc3F)c[nH]c12)N1C[C@H](C)N(C)[C@@H](C)C1`
Completion: > 30 µM

###

Below is a list of entries, each paired with its recorded pIC50 value.
- Experimental system: recombinant JAK1 (amino acids 866-1154) (Homo sapiens (Human), UniProt P23458)
- Protocol description: Enzyme inhibition studies, JAK1 (5 mM ATP, Caliper)
pIC50: −log10 of the molar value.

Illustrative cases are given below, each with its answer.
[
  {
    "Entry smiles": "COC[C@H](C(=O)Nc1cccc2c(-c3nc(Nc4cccc(S(C)(=O)=O)c4F)ncc3C)c[nH]c12)N1CCN(C)C[C@H]1C",
    "Value": "> 8.52"
  },
  {
    "Entry smiles": "CC[C@H](C(=O)Nc1cccc2c(-c3nc(Nc4cccc(S(C)(=O)=O)c4F)ncc3C)c[nH]c12)N1CCCN(C)CC1",
    "Value": "> 8.52"
  },
  {
    "Entry smiles": "CCS(=O)(=O)c1cccc(Nc2ncc(C)c(-c3c[nH]c4c(NC(=O)[C@@H](C)N5CCN(C)CC5)cccc34)n2)c1F",
    "Value": "> 8.52"
  },
  {
    "Entry smiles": "COC[C@H](C(=O)Nc1cccc2c(-c3nc(Nc4cccc(S(C)(=O)=O)c4F)ncc3C)c[nH]c12)N1CCCN(C)CC1",
    "Value": "> 8.52"
  },
  {
    "Entry smiles": "Cc1cnc(Nc2cccc(S(C)(=O)=O)c2F)nc1-c1c[nH]c2c(NC(=O)[C@@H](C)N3CCN(CCO)CC3)cccc12",
    "Value": "> 8.52"
  }
]

Prompt: Form field: reported pIC50 of `Cc1cnc(Nc2cccc(S(C)(=O)=O)c2F)nc1-c1c[nH]c2c(NC(=O)[C@H](C)N3CCN(C)C[C@@H]3C)cccc12`
Completion: 6.84

###

- Experimental system: recombinant JAK2 (amino acids 831-1132) (Homo sapiens (Human), UniProt O60674)
- Protocol description: Enzyme inhibition studies, JAK2 (5 mM ATP, Caliper)
Quantity name: IC50

Prompt: Data request, read-out IC50, for Cc1cnc(Nc2cccc(S(C)(=O)=O)c2F)nc1-c1c[nH]c2c(NC(=O)[C@H](C)N3CCN(C)C[C@H]3C)cccc12 [Example 47]
Completion: > 30 µM

Prompt: Entry under review: COC[C@@H](C(=O)Nc1cccc2c(-c3nc(Nc4cccc(S(C)(=O)=O)c4F)ncc3F)c[nH]c12)N1CCCN(C)CC1 [Example 44] . Reported IC50?
Completion: > 30 µM

Prompt: Entry under review: C[C@H]1CN([C@@H](C)C(=O)Nc2cccc3c(-c4nc(Nc5cccc(S(C)(=O)=O)c5F)ncc4F)c[nH]c23)C[C@H](C)N1 [Example 12] . Reported IC50?
Completion: > 30 µM

###

- Experimental system: recombinant JAK1 (amino acids 866-1154) (Homo sapiens (Human))
- Protocol description: Enzyme inhibition studies, JAK1 (5 mM ATP, Caliper)
- Experimental: JAK enzyme was expressed as N-terminal GST fusion in insect cells and purified by glutathione-affinity and size-exclusion chromatographies. Enzymes were assayed at their approximated high end of physiological ATP concentration of 5 mM, in the presence of inhibitor dosed at 30, 3, 0.3, 0.03, 0.003 and 0 μM final test concentrations. Phosphorylated and unphosphotylated peptides were separated and quantified by a Caliper LC3000 system (Caliper Life Sciences, MA) for calculating percent inhibition.
pIC50: −log10 of the molar value.
# pIC50 listing for each entry below

Illustrative cases are given below, each with its answer.
[
  {
    "Molecule": "COC[C@H](C(=O)Nc1cccc2c(-c3nc(Nc4cccc(S(C)(=O)=O)c4F)ncc3C)c[nH]c12)N1CCN(C)CC1 [Example 16]",
    "pIC50": "> 8.52"
  },
  {
    "Molecule": "CC[C@H](C(=O)Nc1cccc2c(-c3nc(Nc4cccc(S(C)(=O)=O)c4F)ncc3C)c[nH]c12)N1CCN(C)CC1C (stereo in doubt) [Example 51]",
    "pIC50": "> 8.52"
  },
  {
    "Molecule": "Cc1cnc(Nc2cccc(S(C)(=O)=O)c2F)nc1-c1c[nH]c2c(NC(=O)[C@@H](COCc3ccccc3)N3CCN(C)CC3)cccc12 [Example 64]",
    "pIC50": "> 7.52"
  },
  {
    "Molecule": "CC[C@H](C(=O)Nc1cccc2c(-c3nc(Nc4cccc(S(C)(=O)=O)c4F)ncc3C)c[nH]c12)N1C[C@@H](C)N[C@H](C)C1 [Example 26]",
    "pIC50": "> 8.52"
  }
]

Now consider a different molecule.
Prompt: Query for recombinant JAK1 (amino acids 866-1154) (Homo sapiens (Human)): what pIC50 does the record show for Cc1cnc(Nc2cccc(S(C)(=O)=O)c2F)nc1-c1c[nH]c2c(NC(=O)[C@@H](C)N3CCN(C)CC3)cccc12 [Example 2] ?
Completion: ≥ 8.52
